Kindly supply the reported % Inhibition, cyclin D1/CDK4 kinase values for the records listed here.
- experimental_target: CDK4/Cyclin D1 complex (UniProt P11802 1-303; P24385 1-295); also: test concentration or dose not given here
- Sequence (P11802 other isoform, or with tags, fused parts or gaps, chain 1 of 2): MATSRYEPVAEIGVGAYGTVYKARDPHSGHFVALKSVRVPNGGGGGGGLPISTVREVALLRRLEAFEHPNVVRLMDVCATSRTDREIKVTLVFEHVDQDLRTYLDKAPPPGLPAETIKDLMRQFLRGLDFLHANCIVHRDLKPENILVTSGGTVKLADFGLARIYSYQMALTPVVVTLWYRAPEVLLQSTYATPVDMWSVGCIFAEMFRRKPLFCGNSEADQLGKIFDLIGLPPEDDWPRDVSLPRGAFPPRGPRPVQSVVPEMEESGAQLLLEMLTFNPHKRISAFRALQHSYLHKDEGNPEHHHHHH
- Sequence (P24385 whole entry, chain 2 of 2): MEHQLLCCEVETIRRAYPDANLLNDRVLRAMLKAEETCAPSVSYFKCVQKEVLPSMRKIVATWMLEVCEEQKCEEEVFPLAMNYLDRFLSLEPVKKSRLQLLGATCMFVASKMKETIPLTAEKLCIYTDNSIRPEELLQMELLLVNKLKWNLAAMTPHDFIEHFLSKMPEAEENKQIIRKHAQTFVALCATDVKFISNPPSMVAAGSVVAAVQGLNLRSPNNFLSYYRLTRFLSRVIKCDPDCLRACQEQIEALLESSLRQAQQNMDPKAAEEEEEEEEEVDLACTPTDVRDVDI
- assay_details: cell-based or functional assay
Square brackets hold non-standard residues; d marks the D form. Ends that are not written are not given here. Abu = CC[C@H](N)C(=O)O

binder: KA[Abu]RRLFG-NH2 [P21 N-terminus peptide KAURRLFG-NH2]
% Inhibition, cyclin D1/CDK4 kinase: 66%

binder: HSKRRLIF-NH2 [p21 (152-159) HSKRRLIF-NH2]
% Inhibition, cyclin D1/CDK4 kinase: 72%

binder: HSKRRLFG-NH2 [P21 C-terminius-LFG hybrid HSKRRLFG-NH2]
% Inhibition, cyclin D1/CDK4 kinase: 42%

binder: HSKRRLDL-NH2 [P21 C-terminus-LDL hybrid HSKRRLDL-NH2]
% Inhibition, cyclin D1/CDK4 kinase: 24%

binder: PVKRRLDL-NH2 (Derived from E2F1) [E2F1 peptide PVKRRLDL-NH2]
% Inhibition, cyclin D1/CDK4 kinase: 58%

Now for another entry.
In: Entry under review: KAXRRLIF (U at position 3 (read as Abu); C-terminal carboxamide) [P21 N-terminus-LIF hybrid KAURRLIF-NH2] . Reported % Inhibition, cyclin D1/CDK4 kinase?
Out: 83%
